# target.or.system: human TRPA1 (Homo sapiens (Human), UniProt O75762)
# Sequence (O75762 whole entry): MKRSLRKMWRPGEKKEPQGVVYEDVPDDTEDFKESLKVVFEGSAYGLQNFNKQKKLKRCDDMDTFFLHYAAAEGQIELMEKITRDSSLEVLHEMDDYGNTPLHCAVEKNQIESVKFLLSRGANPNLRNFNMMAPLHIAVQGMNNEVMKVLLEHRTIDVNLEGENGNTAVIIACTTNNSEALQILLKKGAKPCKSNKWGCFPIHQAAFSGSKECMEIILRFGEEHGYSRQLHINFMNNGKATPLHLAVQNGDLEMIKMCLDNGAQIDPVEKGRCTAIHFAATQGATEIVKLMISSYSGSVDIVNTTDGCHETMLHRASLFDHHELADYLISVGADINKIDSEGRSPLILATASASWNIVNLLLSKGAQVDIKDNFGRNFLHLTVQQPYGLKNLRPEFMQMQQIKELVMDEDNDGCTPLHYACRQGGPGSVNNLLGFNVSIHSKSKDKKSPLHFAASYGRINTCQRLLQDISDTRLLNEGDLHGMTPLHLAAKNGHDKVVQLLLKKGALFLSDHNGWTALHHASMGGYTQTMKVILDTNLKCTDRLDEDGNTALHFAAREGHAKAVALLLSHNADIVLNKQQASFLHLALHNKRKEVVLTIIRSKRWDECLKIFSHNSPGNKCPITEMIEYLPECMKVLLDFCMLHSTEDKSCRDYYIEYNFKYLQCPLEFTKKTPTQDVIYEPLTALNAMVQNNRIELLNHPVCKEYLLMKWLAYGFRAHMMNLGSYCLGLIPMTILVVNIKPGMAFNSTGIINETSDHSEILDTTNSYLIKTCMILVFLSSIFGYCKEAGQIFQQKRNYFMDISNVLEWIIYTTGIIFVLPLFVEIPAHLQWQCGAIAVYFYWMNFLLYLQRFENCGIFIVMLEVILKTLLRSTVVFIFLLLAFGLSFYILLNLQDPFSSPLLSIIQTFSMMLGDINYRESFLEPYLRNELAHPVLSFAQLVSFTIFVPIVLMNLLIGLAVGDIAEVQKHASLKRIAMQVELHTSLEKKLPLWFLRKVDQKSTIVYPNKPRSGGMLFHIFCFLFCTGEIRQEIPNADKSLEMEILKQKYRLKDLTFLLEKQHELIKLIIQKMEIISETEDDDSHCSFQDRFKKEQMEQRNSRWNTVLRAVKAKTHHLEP
# method.description: IC50 determination on the human TRPA1 channel, calcium fluorescence (Hamamatsu FDSS plate reader)
# Type: cell-based
# reported.conditions: CHO cells expressing human TRPA1; block of cinnamaldehyde induced calcium influx; 20 minutes compound incubation; Hill coefficient fixed to 1.5; read-out: hTRPA1 AUC IC50
Quick reference: IC50 of the listed items.
result.type: IC50 (nM)

>>> df
                   compound_structure_string                          target_or_system  unit_symbol  test_value
 0  O=C(NCc1cc(-c2ccc(C(F)(F)F)nc2)ncn1)[C@]1(CO)CCCN1S(=O)(=O)c1ccc(F)cc1  human TRPA1 (Homo sapiens (Human), UniProt O75762)           nM         284
 1  O=C(NCc1cc(-c2ccc(C(F)(F)F)nc2)ncc1F)[C@@H]1C[C@@H](F)CN1S(=O)(=O)c1ccc(F)cc1  human TRPA1 (Homo sapiens (Human), UniProt O75762)           nM          17
 2  O=C(NCc1cc(-c2ccc(C(F)(F)F)cc2)ncn1)[C@@H]1C[C@@H](F)CN1S(=O)(=O)c1ccc(F)c(F)c1  human TRPA1 (Homo sapiens (Human), UniProt O75762)           nM          30
 3  N#Cc1ccc(S(=O)(=O)N2C[C@H](F)C[C@H]2C(=O)NCc2cn(-c3ccc(C(F)(F)F)cc3)nc2Cl)cc1  human TRPA1 (Homo sapiens (Human), UniProt O75762)           nM          49
 4  O=C(NCc1cc(-c2ccc(C(F)(F)F)nc2)ncn1)[C@@H]1C[C@H](F)CN1S(=O)(=O)c1ccc(F)cc1  human TRPA1 (Homo sapiens (Human), UniProt O75762)           nM         819
 5  O=C(NCc1cc(-c2ccc(C(F)(F)F)nc2)ncn1)[C@]1(C(F)F)CCCN1S(=O)(=O)c1ccc(F)cc1  human TRPA1 (Homo sapiens (Human), UniProt O75762)           nM          29
 6  O=C(NCc1cn(-c2ccc(C(F)(F)F)nc2)nc1C1CC1)[C@@H]1C[C@@H](F)CN1S(=O)(=O)c1ccc(F)cc1  human TRPA1 (Homo sapiens (Human), UniProt O75762)           nM          55
 7  O=C(NCc1cc(-c2ccc(C(F)(F)F)cc2)ncn1)[C@@H]1[C@H]2CC[C@H](C2)N1S(=O)(=O)c1ccc(F)cc1  human TRPA1 (Homo sapiens (Human), UniProt O75762)           nM          23
 8  O=C(NCc1cc(-c2ccc(C(F)(F)F)nc2)ncn1)[C@@H]1[C@H](F)CCN1S(=O)(=O)c1ccc(F)cc1  human TRPA1 (Homo sapiens (Human), UniProt O75762)           nM         120
 9  O=C(NCc1cc(-c2ccc(SC(F)(F)F)cc2)ncn1)[C@@H]1C[C@@H](F)CN1S(=O)(=O)c1ccc(F)cc1  human TRPA1 (Homo sapiens (Human), UniProt O75762)           nM          32
10  O=C(NCc1cc(N2CCC(C(F)(F)F)CC2)ncn1)[C@@H]1C[C@@H](F)CN1S(=O)(=O)c1ccc(F)cc1  human TRPA1 (Homo sapiens (Human), UniProt O75762)           nM         434
11  COC[C@@]1(C(=O)NCc2cc(-c3ccc(C(F)(F)F)nc3)ncn2)CCCN1S(=O)(=O)c1ccc(F)cc1  human TRPA1 (Homo sapiens (Human), UniProt O75762)           nM         252
12  O=C(NCc1cn(-c2ccc(C(F)(F)F)nc2)nc1Cl)[C@@H]1C[C@@H](F)CN1S(=O)(=O)c1ccc(F)cc1  human TRPA1 (Homo sapiens (Human), UniProt O75762)           nM          30
13  C[C@@]1(C(=O)NCc2cc(-c3ccc(C(F)(F)F)cn3)ncn2)CCCN1S(=O)(=O)c1ccc(F)cc1  human TRPA1 (Homo sapiens (Human), UniProt O75762)           nM         268
